Data provenance: paper PMC8882856

- Assay system: human β2‐adrenoceptor (Homo sapiens, UniProt P07550)
- Sequence (P07550 whole entry): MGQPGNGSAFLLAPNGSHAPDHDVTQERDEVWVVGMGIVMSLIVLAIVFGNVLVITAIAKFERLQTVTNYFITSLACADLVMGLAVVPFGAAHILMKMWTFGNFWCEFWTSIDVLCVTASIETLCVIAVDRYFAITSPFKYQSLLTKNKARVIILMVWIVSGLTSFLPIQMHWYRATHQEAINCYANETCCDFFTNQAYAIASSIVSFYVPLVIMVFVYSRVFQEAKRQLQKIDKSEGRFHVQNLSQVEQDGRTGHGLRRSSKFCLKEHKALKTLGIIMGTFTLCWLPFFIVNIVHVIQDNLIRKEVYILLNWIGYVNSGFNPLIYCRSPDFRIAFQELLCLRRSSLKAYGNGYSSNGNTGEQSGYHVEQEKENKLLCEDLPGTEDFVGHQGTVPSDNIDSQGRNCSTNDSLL
- Type: binding
- Test context: ^3H‐CGP12177; log value
Measured metric: IC50 (log) β2, IC50>top concentration used

| Compound | Measured result |
| --- | --- |
| O=C1Nc2ccccc2C2=NC(CN3CCN(c4ccccc4)CC3)CN12 (stereo not drawn) | IC50>−4 |
| COc1ccccc1N1CCN(CC2CN3C(=O)N(C)c4ccccc4C3=N2)CC1 (stereo not drawn) | IC50>−5 |
| O=C1c2ccccc2CCC1CNCCc1ccc(O)cc1 (stereo not drawn) | IC50>−4 |
| COc1ccc(NC(=O)N2CCc3c2ccc2ccccc32)cc1N1CCN(C)CC1 | IC50>−5 |

* * *

In what follows, each item is paired with its log10 Kd for human α2A‐adrenoceptor (Homo sapiens, UniProt P08913).
Parameter value (number): base-10 log of Kd in nM.

Simply: O=C1Nc2ccccc2C2=NC(CN3CCN(c4ccccc4)CC3)CN12 (stereo not shown) , human α2A‐adrenoceptor (Homo sapiens, UniProt P08913), log10 Kd = 2.17

Simply: "CCS(=O)(=O)N1CCC[C@@H]2CN3CCc4cc(OC)ccc4[C@@H]3C[C@@H]21" , human α2A‐adrenoceptor (Homo sapiens, UniProt P08913), log10 Kd = 0.07

Simply: "COc1ccc(NC(=O)N2CCc3c2ccc2ccccc32)cc1N1CCN(C)CC1" , human α2A‐adrenoceptor (Homo sapiens, UniProt P08913), log10 Kd = 2.38

Simply: COc1ccccc1N1CCN(CC2CN3C(=O)N(C)c4ccccc4C3=N2)CC1 (stereo not shown) , human α2A‐adrenoceptor (Homo sapiens, UniProt P08913), log10 Kd = 2.21

Simply: "Cc1c[nH]c(=O)n(CCCN2CCN(c3ccccc3OCC(F)(F)F)CC2)c1=O" , human α2A‐adrenoceptor (Homo sapiens, UniProt P08913), log10 Kd = 2.00

Simply: O=C1c2ccccc2CCC1CNCCc1ccc(O)cc1 (stereo not shown) , human α2A‐adrenoceptor (Homo sapiens, UniProt P08913), log10 Kd = 1.55

Simply: COc1ccc(C(CN(C)C)C2(O)CCCCC2)cc1 (stereo not shown) , human α2A‐adrenoceptor (Homo sapiens, UniProt P08913), log10 Kd = 5.54

* * *

Record form. Attribute: pKd. Fill in for each entry.
- Assay system: human α2A‐adrenoceptor (Homo sapiens, UniProt P08913)
- Sequence (P08913 whole entry): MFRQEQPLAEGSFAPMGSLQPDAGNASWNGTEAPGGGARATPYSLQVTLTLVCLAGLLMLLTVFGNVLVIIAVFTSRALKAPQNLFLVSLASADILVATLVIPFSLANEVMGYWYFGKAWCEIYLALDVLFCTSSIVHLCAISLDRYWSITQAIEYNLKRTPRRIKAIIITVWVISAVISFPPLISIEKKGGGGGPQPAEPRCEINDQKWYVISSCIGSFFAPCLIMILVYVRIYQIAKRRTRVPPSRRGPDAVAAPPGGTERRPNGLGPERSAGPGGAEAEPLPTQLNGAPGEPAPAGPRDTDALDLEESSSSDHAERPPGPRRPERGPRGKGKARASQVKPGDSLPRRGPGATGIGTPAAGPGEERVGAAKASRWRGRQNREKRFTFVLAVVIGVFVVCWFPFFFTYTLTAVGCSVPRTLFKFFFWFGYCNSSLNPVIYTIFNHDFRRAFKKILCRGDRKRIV
- Test protocol: ^3H‐rauwolscine whole cell competition binding, CHO‐α2A cells
# reply with the number alone; pKd is -log10 of concentration in mol/L

Value of measured pKd for the entry CC(C)(C)NCC(O)COc1cccc2[nH]c(C#N)cc12 (stereo not shown) : 5.56

Value of measured pKd for the entry "CCC1(c2cnc[nH]2)Cc2ccccc2C1" : 8.50

Value of measured pKd for the entry "CN1CCc2cccc(Cl)c2CC1" : 6.29

Value of measured pKd for the entry "CNCC[C@H](Oc1cccc2ccccc12)c1cccs1" : 5.43

* * *

- Assay system: human β2‐adrenoceptor (Homo sapiens)
- Type: binding
- Test context: ^3H‐CGP12177 whole cell binding; log values, mean ± s.e.mean; ^app = apparent KD; 'no binding to' = log top concentration
Measured metric: Log KD β2

# annotated cases, reported Log KD β2 shown
| Compound | Assay system | Measured metric | Measured result |
| --- | --- | --- | --- |
| COc1ccc(C(CN(C)C)C2(O)CCCCC2)cc1 (centres unmarked) | human β2‐adrenoceptor (Homo sapiens) | Log KD β2 | −4.13 ± 0.13^app |
| CCn1ccnc1CC1COc2ccccc2O1 (centres unmarked) | human β2‐adrenoceptor (Homo sapiens) | Log KD β2 | no binding to −3 |
| CN1CCN(c2ccc(Nc3c4ccccc4nc4ccccc34)cc2)CC1 | human β2‐adrenoceptor (Homo sapiens) | Log KD β2 | −5.58 ± 0.08 |
| CCC1(C2=NCCN2)Cc2ccccc2O1 (centres unmarked) | human β2‐adrenoceptor (Homo sapiens) | Log KD β2 | no binding to −3 |
| O=C1Cc2cc(CCN3CCN(c4nsc5ccccc45)CC3)c(Cl)cc2N1 | human β2‐adrenoceptor (Homo sapiens) | Log KD β2 | No binding to −4 |
| Cc1c[nH]c(=O)n(CCCN2CCN(c3ccccc3OCC(F)(F)F)CC2)c1=O | human β2‐adrenoceptor (Homo sapiens) | Log KD β2 | −4.77 ± 0.07 |
| COc1cccc(OC)c1OCCNCC1CSc2ccccc2O1 (centres unmarked) | human β2‐adrenoceptor (Homo sapiens) | Log KD β2 | −5.08 ± 0.06 |
| CN(C)CCCC1(c2ccc(F)cc2)OCc2cc(C#N)ccc21 (centres unmarked) | human β2‐adrenoceptor (Homo sapiens) | Log KD β2 | No binding to −4 |
| COc1cc2nc(N3CCN(C(=O)C4CCCO4)CC3)nc(N)c2cc1OC (centres unmarked) | human β2‐adrenoceptor (Homo sapiens) | Log KD β2 | No binding to −4 |

Turning now to a further record.
Value of measured Log KD β2 for the entry "COc1cccc2c1CCC[C@H]2CN(C)CCc1ccc2ccoc2c1.CS(=O)(=O)O" : −5.88 ± 0.04
